Test: chemical genetic growth profiling, strain panel (AID 1159580);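 further: tested at 20 µM; growth read once vehicle control cultures reached saturation at 30 °C; 1 = growth at the plate median or of vehicle wells; lower values mean less growth of the strain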
Settings: S. cerevisiae deletion strains, growth OD, locus YDR001C, strain nth1, hits give low values
Out of some 5,500 compounds screened, about 2,000 (36%) were called active. Inconclusive results (about 18%) are left out. The list shows a part of the results.
Response field label takes class 1 when normalized growth is strictly below 1 and class 0 in all other cases.

>  <molecule>
COc1cc(OC)c2c(=O)c(O)c(-c3ccc(OC)c(OC)c3)oc2c1

>  <assigned-label>
class 1

$$$$
>  <molecule>
COc1cc(O)c2c(=O)c(O)c(-c3ccc(O)c(O)c3)oc2c1

>  <assigned-label>
class 1

$$$$
>  <molecule>
CC1CC[C@]2(NC1)O[C@H]1CC3C4CC[C@H]5C[C@@H](O)CC[C@]5(C)C4CC[C@]3(C)[C@H]1[C@@H]2C (stereo partly drawn)

>  <assigned-label>
class 1

$$$$
>  <molecule>
CC1CC[C@@]2(OC1)O[C@H]1CC3C4CC[C@@H]5C[C@@H](O)CC[C@]5(C)C4CC[C@]3(C)[C@H]1[C@@H]2C (stereo partly drawn)

>  <assigned-label>
class 0

$$$$
